test: Oligonucleotide concentrations in tissues by LC-MS/MS after oral gavage in CD-1 mice (Example 7); format: in vivo; settings: 500 mg/kg oral gavage once daily for 4 weeks, 48 hours after last dose, duodenum
For each of the substances below, state its Oligonucleotide concentration, Duodenum.
Give bare numbers, in µg/g.

Consider the following illustrative entries.
830025 (antisense TTTGTAAATCGAAAGC; 3-10-3 cEt gapmer, further chemistry not given here) [compound 830025] | 0.7
829994 (GGAGGCAGGGCCGCGA; 3-10-3 cEt gapmer, further chemistry not given here) [compound 829994] | 0.8
830121 (AGAATCAAGCCCTGGC; 3-10-3 cEt gapmer, further chemistry not given here) [compound 830121] | 0.4
830037 (antisense CTATTGGCTGATCTGG; 3-10-3 cEt gapmer, further chemistry not given here) [compound 830037] | 1.2
790615 (CCAATGAGAATGCTTC; 3-10-3 cEt gapmer, further chemistry not given here) [compound 790615] | 0.9

Could you now look at the following substance, please?
[ask] Give Oligonucleotide concentration, Duodenum for 798781 (CGTAAGATTCACAGCA; 3-10-3 cEt gapmer, further chemistry not given here) [compound 798781]
[reply] 0.7

The measured values listed here are drawn from patent US10517889B2.
